recorded metric: melting point

[[record]]
compound = "N#Cc1ccc(NC(=O)OCc2cc3cc(-c4ccccc4)ccc3o2)c(C(=O)O)c1 [compound 21]"
measurement = "213.9 to 214.5 °C"


Q: Entry O=C(Nc1cccc(Cl)c1C(=O)O)OCc1cc2cc(-c3ccccn3)ccc2o1 [compound 38] needs its melting point filled in; supply it.
Result: 134.8 to 144.1 °C

Q: Entry O=C(Nc1ccc(-c2ccccc2)cc1-c1nnn[nH]1)OCc1cc2cc(-c3cc(Cl)cc(Cl)c3)ccc2o1 [compound 502] needs its melting point filled in; supply it.
Result: 127.5 to 134 °C

Q: Entry N#Cc1cccc(NC(=O)OCc2cc3cc(-c4ccc(F)cc4)ccc3o2)c1C(=O)O [compound 33] needs its melting point filled in; supply it.
Result: 150 °C (dec.)

Q: Entry O=C(Nc1ccc(-c2ccccc2)cc1C(=O)O)OCc1ccc(-c2ccccc2)cc1 [compound 601] needs its melting point filled in; supply it.
Result: 234.5 to 235.6 °C

Q: Entry Cc1ccc(NC(=O)OCc2cc3cc(-c4cccnc4)ccc3o2)c(C(=O)O)c1 [compound 35] needs its melting point filled in; supply it.
Result: 200.1 to 200.4 °C

----------
Below: a set of entries, each annotated with reported melting point.

Recorded melting point, per entry:
[[record]]
compound = "O=C(Nc1cccc(Cl)c1C(=O)O)OCc1cc2cc(-c3cncnc3)ccc2o1 [compound 37]"
measurement = "192.8 to 194.3 °C"

[[record]]
compound = "O=C(Nc1cccc(Cl)c1C(=O)O)OCCOc1ccc(-c2ccccc2)cc1 [compound 801]"
measurement = "157.5 to 158.9 °C"

[[record]]
compound = "O=C(Nc1cc(C(=O)O)cc(-c2ccccc2)c1)OCc1cc2cc(-c3ccccc3)ccc2o1 [compound 401]"
measurement = "235.7 to 238.9 °C"

[[record]]
compound = "Cc1ccc(NC(=O)OCc2cc3cc(-c4ccsc4)ccc3o2)c(C(=O)O)c1 [compound 31]"
measurement = "213.2 to 215.1 °C"

[[record]]
compound = "O=C(Nc1ccc2ccccc2c1C(=O)O)OCc1cc2cc(-c3ccc(F)cc3)ccc2o1 [compound 202]"
measurement = "204.5 to 205 °C"

[[record]]
compound = "O=C(Nc1cc(-c2ccccc2)ccc1C(=O)O)OCc1cc2cc(-c3ccccc3)ccc2o1 [compound 11]"
measurement = "229.5 to 230 °C"

[[record]]
compound = "O=C(Nc1cccc(Cl)c1C(=O)O)OCc1cc2cc(-c3cccnc3)ccc2o1 [compound 36]"
measurement = "172 to 174 °C"


Q: Entry O=C(Nc1ccc(Br)cc1-c1nnn[nH]1)OCc1cc2cc(-c3ccc(F)cc3)ccc2o1 [compound 504] needs its melting point filled in; supply it.
Result: 121 to 138 °C

----------
Below: a set of entries, each annotated with reported melting point.

Recorded melting point, per entry:
[[record]]
compound = "CS(=O)(=O)c1ccc(NC(=O)OCc2cc3cc(-c4ccccc4)ccc3o2)c(C(=O)O)c1 [compound 20]"
measurement = "234 to 235 °C"

[[record]]
compound = "Cc1cccc(NC(=O)OCc2cc3cc(-c4ccc(F)cc4)ccc3o2)c1C(=O)O [compound 27]"
measurement = "176.1 to 178.8 °C"

[[record]]
compound = "O=C(Nc1cccc(Cl)c1C(=O)O)OCc1cc2cc(-c3ccnnc3)ccc2o1 [compound 40]"
measurement = "179 to 182.2 °C"

[[record]]
compound = "Cc1ccc(NC(=O)OCCOc2ccc(-c3ccccc3)cc2)c(C(=O)O)c1 [compound 802]"
measurement = "175.5 to 177.8 °C"

[[record]]
compound = "O=C(Nc1ccc(Cl)cc1C(=O)O)OCc1cc2cc(-c3ccc(F)cc3)ccc2o1 [compound 24]"
measurement = "216.7 to 217.3 °C"

[[record]]
compound = "O=C(Nc1ccc(-c2ccc(F)cc2)cc1C(=O)O)OCc1cc2cc(-c3ccsc3)ccc2o1 [compound 32]"
measurement = "213.2 to 215.1 °C"

[[record]]
compound = "O=C(Nc1ccc(-c2ccc(F)cc2)cc1C(=O)O)OCc1cc2cc(-c3cccnc3)ccc2o1 [compound 34]"
measurement = "237.1 to 237.5 °C"


Q: Entry O=C(Nc1cc2ccccc2cc1C(=O)O)OCc1cc2cc(-c3ccccc3)ccc2o1 [compound 18] needs its melting point filled in; supply it.
Result: 225.6 to 225.8 °C

----------
recorded metric: melting point

Recorded melting point, per entry:
[[record]]
compound_structure = "O=C(Nc1cccc(Br)c1C(=O)O)OCc1cc2cc(-c3ccc(F)cc3)ccc2o1"
recorded_metric = "melting point"
measurement = "170.6 to 172 °C"

[[record]]
compound_structure = "O=C(Nc1ccc(-c2ccccc2)cc1C(=O)O)OCc1cc2cc(-c3ccc(F)cc3)ccc2o1"
recorded_metric = "melting point"
measurement = "231.3 to 231.6 °C"


Read the next record carefully.
Q: Entry Cc1cc(Br)ccc1NC(=O)OCc1cc2cc(-c3cccnc3)ccc2o1 needs its melting point filled in; supply it.
Result: 213.9 to 214.5 °C

----------
recorded metric: melting point

Recorded melting point, per entry:
[[record]]
compound_structure = "O=C(Nc1cccc(Cl)c1C(=O)O)OCc1cc2cc(-c3ccc(F)cc3)ccc2o1"
measurement = "216.7 to 217.3 °C"

[[record]]
compound_structure = "O=C(Nc1ccc(-c2ccccc2)cc1C(=O)O)OCc1cc2cc(-c3ccccc3)ccc2o1"
measurement = "225.9 to 226.2 °C"

[[record]]
compound_structure = "O=C(Nc1ccc(-c2ccccc2)cc1-c1nnn[nH]1)OCc1cc2cc(-c3ccccc3)ccc2o1"
measurement = "180 to 183 °C"


Q: Entry O=C(Nc1ccc2ccccc2c1C(=O)O)OCc1cc2cc(-c3ccccc3)ccc2o1 needs its melting point filled in; supply it.
Result: 174.5 to 177.2 °C

Q: Entry Nc1cccc(NC(=O)OCc2cc3cc(-c4ccc(F)cc4)ccc3o2)c1C(=O)O needs its melting point filled in; supply it.
Result: 176.4 to 178.5 °C

Q: Entry O=C(Nc1ccc(F)cc1C(=O)O)OCc1cc2cc(-c3ccc(F)cc3)ccc2o1 needs its melting point filled in; supply it.
Result: 210 to 211.9 °C

Q: Entry O=C(Nc1ccc(F)cc1-c1nnn[nH]1)OCc1cc2cc(-c3ccc(F)cc3)ccc2o1 needs its melting point filled in; supply it.
Result: 121 to 125.2 °C

----------
Below: a set of entries, each annotated with reported melting point.

[[record]]
compound_structure = "O=C(Nc1ccc(Br)cc1C(=O)O)OCc1cc2cc(-c3ccc(F)cc3)ccc2o1"
recorded_metric = "melting point"
measurement = "220.3 to 220.6 °C"

[[record]]
compound_structure = "O=C(Nc1ccc(-c2ccc(F)cc2)cc1C(=O)O)OCc1cc2cc(-c3ccc(F)cc3)ccc2o1"
recorded_metric = "melting point"
measurement = "235.1 to 235.7 °C"


Q: Entry O=C(Nc1ccccc1C(=O)O)OCc1cc2cc(-c3ccccc3)ccc2o1 needs its melting point filled in; supply it.
Result: 203.6 to 203.8 °C

Q: Entry O=C(Nc1ccc(-c2ccc(F)cc2)cc1-c1nnn[nH]1)OCc1cc2cc(-c3ccc(F)cc3)ccc2o1 needs its melting point filled in; supply it.
Result: 209 to 211 °C

Q: Entry O=C(Nc1ccc(Br)cc1C(=O)O)OCc1cc2cc(-c3ccccc3)ccc2o1 needs its melting point filled in; supply it.
Result: 221.2 to 222 °C

Q: Entry CC(C)Oc1ccc(NC(=O)OCc2cc3cc(-c4ccc(F)cc4)ccc3o2)c(C(=O)O)c1 needs its melting point filled in; supply it.
Result: 195 to 196.5 °C

Q: Entry O=C(Nc1cccc([N+](=O)[O-])c1C(=O)O)OCc1cc2cc(-c3ccc(F)cc3)ccc2o1 needs its melting point filled in; supply it.
Result: 191.5 to 191.9 °C

Q: Entry O=C(Nc1ccc(-c2cccnc2)cc1C(=O)O)OCc1cc2cc(-c3ccc(F)cc3)ccc2o1 needs its melting point filled in; supply it.
Result: 225.7 to 229.3 °C

Q: Entry O=C(O)Cc1ccccc1NC(=O)OCc1cc2cc(-c3ccccc3)ccc2o1 needs its melting point filled in; supply it.
Result: 169.5 to 170.9 °C

Q: Entry Cc1ccc(NC(=O)OCc2cc3cc(-c4ccc(F)cc4)ccc3o2)c(C(=O)O)c1 needs its melting point filled in; supply it.
Result: 190.8 to 191.9 °C

Q: Entry O=C(Nc1ccc(Br)cc1-c1nnn[nH]1)OCc1cc2cc(-c3ccccc3)ccc2o1 needs its melting point filled in; supply it.
Result: 166 to 190 °C

Q: Entry O=C(Nc1cccc(Cl)c1C(=O)O)OCc1cc2cc(-c3cnccn3)ccc2o1 needs its melting point filled in; supply it.
Result: 212 to 214.1 °C

Q: Entry O=C(Nc1ccccc1-c1nnn[nH]1)OCc1cc2cc(-c3ccc(F)cc3)ccc2o1 needs its melting point filled in; supply it.
Result: 155 to 158 °C

Q: Entry O=C(Nc1ccc(-c2ccsc2)cc1C(=O)O)OCc1cc2cc(-c3ccccc3)ccc2o1 needs its melting point filled in; supply it.
Result: 229.5 to 230 °C

Q: Entry O=C(Nc1ccc(-c2ccc(F)cc2)cc1C(=O)O)OCc1cc2cc(-c3ccccc3)ccc2o1 needs its melting point filled in; supply it.
Result: 229.4 to 229.6 °C
